System: Caco-2 cells
Assay: MTT assay, survival rate of Caco-2 cells
Type: cell-based, human
Conditions: 100 μmol/L, 4 h
Survival rates (%) overview

# molecule, system-name, Survival rates (%)
measured = [
    ("CC(=O)O[C@H]1C(=O)[C@@]2(C)[C@H]([C@H](OC(=O)c3ccccc3)[C@]3(O)C[C@H](OC(=O)[C@H](O)[C@@H](NC(=O)c4ccccc4)c4ccccc4)C(C)=C1C3(C)C)[C@]1(OC(C)=O)CO[C@@H]1C[C@@H]2O [Paclitaxel, reference compound]", "Caco-2 cells", 37.4),
    ("O=c1cc(-c2ccc(O)cc2)oc2c([C@@H]3O[C@H](CO)[C@@H](O)[C@H](O)[C@H]3O)c(O)cc(O)c12", "Caco-2 cells", 98.2),
    ("O=c1cc(-c2ccc(O)c(O)c2)oc2c([C@@H]3O[C@H](CO)[C@@H](O)[C@H](O)[C@H]3O)c(O)cc(O)c12", "Caco-2 cells", 111.5),
    ("COc1cc(O)c2c(=O)cc(-c3ccc(O)cc3)oc2c1[C@@H]1O[C@H](CO)[C@@H](O)[C@H](O)[C@H]1O", "Caco-2 cells", 116.0),
    ("O=c1cc(-c2ccc(O)c(O)c2)oc2c([C@@H]3O[C@H](CO)[C@@H](O)[C@H](O)[C@H]3O[C@@H]3O[C@H](CO)[C@H](O)[C@H](O)[C@H]3O)c(O)cc(O)c12", "Caco-2 cells", 102.7),
    ("COc1cc(O)c2c(=O)cc(-c3ccc(O)c(O)c3)oc2c1[C@@H]1O[C@H](CO)[C@@H](O)[C@H](O)[C@H]1O", "Caco-2 cells", 109.1),
    ("CCC(C)C(=O)O[C@@H]1[C@@H](O)[C@H](O)[C@@H](CO)O[C@H]1c1c(OC)cc(O)c2c(=O)cc(-c3ccc(O)cc3)oc12 (stereo partly shown)", "Caco-2 cells", 128.9),
]

---

Test: Transport experiment across Caco-2 cell monolayer (Papp)
Format: in vitro ADME, human
Settings: human, Caco-2, in the equimolar mixture of the seven flavonoids, 50 μmol/L, 90 min
Papp A→B at 90 min, 50 μmol/L overview
measurement-type: Papp A→B at 90 min, 50 μmol/L

# compound, endpoint-result
rows = [
    ("CCC(C)C(=O)O[C@@H]1[C@@H](O)[C@H](O)[C@@H](CO)O[C@H]1c1c(OC)cc(O)c2c(=O)cc(-c3ccc(O)cc3)oc12 (stereo partly shown)", "3.49 ×10⁻⁶ cm/s"),
    ("O=c1cc(-c2ccc(O)c(O)c2)oc2c([C@@H]3O[C@H](CO)[C@@H](O)[C@H](O)[C@H]3O[C@@H]3O[C@H](CO)[C@H](O)[C@H](O)[C@H]3O)c(O)cc(O)c12", "1.31 ×10⁻⁶ cm/s"),
    ("COc1cc(O)c2c(=O)cc(-c3ccc(O)cc3)oc2c1[C@@H]1O[C@H](CO)[C@@H](O)[C@H](O)[C@H]1O", "2.69 ×10⁻⁶ cm/s"),
    ("COc1cc(O)c2c(=O)cc(-c3ccc(O)c(O)c3)oc2c1[C@@H]1O[C@H](CO)[C@@H](O)[C@H](O)[C@H]1O", "1.44 ×10⁻⁶ cm/s"),
]
